Give melting point for every item shown.

Answer with the recorded melting point of COc1cccc(CC(=O)O)c1OCCCc1cn(-c2ccc(C(F)(F)F)cn2)nc1C(C)(C)C only. 94 to 95 °C

Supply recorded melting point for COC(=O)c1cccc(NC(=O)NS(=O)(=O)c2ccc(C)cc2)c1 here. 178 to 180 °C

Given CN1CCN(c2cccc(Nc3cc(NC(=O)Nc4c(Cl)cc(Cl)cc4Cl)ncn3)c2)CC1 , respond with its melting point. 138 to 142 °C

Tell me its melting point given Cc1c(C(=O)O)ccc(Oc2cccnc2)c1S(C)(=O)=O as the entry. 214 to 216 °C

Go through the items and report each one's melting point.
1. O=C(NCc1ccc(F)c(F)c1)c1ccnc(N2CCN(Cc3ccccn3)C2=O)c1
2. CN1CCN(CC(=O)N2c3ccccc3N(C)C(=O)c3cncnc32)CC1
3. CC(=O)N[C@@H](CSC(=O)C(C)(C)C)C(=O)NCCSC(C)=O

1. 143 to 145 °C
2. 183 to 185 °C
3. 92 to 94 °C

For every item below, please supply its melting point.
1. CCc1coc2cc(OCc3ccccc3)ccc12
2. Cc1cccc(NC(=O)NC2CC(c3ccccc3F)c3ccccc3N(CC(=O)NC(C)(C)C)C2=O)c1 (stereo unspecified)
3. CC(=C(c1ccccc1)c1ccccc1)P(c1ccccc1)c1ccccc1
4. CCOC(=O)c1cnc2cc(CC)ccc2c1O
5. O=C(O)CCCCCNC(=O)C(CS)Cc1ccccc1 (stereo unspecified)
6. CC(=O)c1ccc(C(=O)OC(C)(C)C)cc1
7. O=C(c1csc2ccccc12)C1CCN(CCc2ccccc2)CC1

1. 69.5 to 70.5 °C
2. 285 to 300 °C
3. 128 to 130 °C
4. 257 to 260 °C
5. 58 to 60 °C
6. 57.5 to 58.8 °C
7. 110 to 112 °C

For every record below, what is its melting point?
1. CC(=O)Nc1cccc(Br)n1
2. N#Cc1ccc(N2C(=O)N(CCCC(=O)O)C3(CCOCC3)C2=O)cc1C(F)(F)F
3. CON(O)C(=O)c1ccccc1C(F)(F)F
4. CC1Oc2c(F)cc(CN3CCN(c4ccc(C(=O)NC5CC5)cc4)CC3)cc2NC1=O (stereo unspecified)

1: 157 °C; 2: 151 to 152 °C; 3: 101 to 103 °C; 4: 108 to 110 °C

###

Field: melting point. Provide a value for each of the compounds that follow.

Below are worked cases with known answers.
Please indicate melting point recorded for CCC(=O)NCCC1=CCc2cc(Br)c(OC)cc21 106 to 109 °C

Give reported melting point value for CCOC(=O)C(=O)Nc1ccc2c(c1)CC(=O)N2 235 to 237 °C

Please report the measured melting point for NCc1c(NC2CCCCC2)cccc1-c1ccccc1 95 to 96 °C

Report melting point, nothing else, for this compound: CC(C)(C(=O)OCC(=O)c1ccccc1)n1c(=O)[nH]c2cccc(F)c2c1=O 179 to 180 °C

Annotate the compound OCc1cccc(-c2ccc3nnn(Cc4ccc5ncccc5c4)c3n2)c1 with its measured melting point. 191 to 193 °C

Batch lookup, melting point per entry.
1. CCOC(=O)C(=CNc1ccc2nccnc2c1)C(=O)OCC
2. O=C(Nc1ccc2ccc(Cl)nc2n1)c1ccccc1F
3. Cc1cc(OC2CCN(CCNC(=O)c3ccc(S(C)(=O)=O)cc3)CC2)ccc1Cl

1: 112 to 114 °C; 2: 222 °C; 3: 123 to 124 °C

List melting point for every entry below, keeping the order given.
1. CCC(C)CC(=O)OC1COC(OC(=O)CC(C)CC)CO1 (stereo not given)
2. Cc1ccc(S(=O)(=O)c2nc(C)c(Br)c(C)n2)cc1

["71 to 72 °C", "157 to 158 °C"]
